- System: primary MCL patient cells (S041)
- Test Details: viability relative to DMSO control (fraction); higher = less drug effect (more viable cells)
- Study Conditions: 15 µM; 48 h
Readout Kind: viability

INSERT INTO assay_data (compound, result) VALUES
  ('CNC(=O)c1cc(Oc2ccc(NC(=O)Nc3ccc(Cl)c(C(F)(F)F)c3)cc2)ccn1 [Sorafenib]', 0.95),
  ('O=C(O)CSc1cc(NS(=O)(=O)c2ccc(Br)cc2)c2ccccc2c1O [UMI-77]', 0.331),
  ('N#Cc1ccnc(N2C(=O)CC[C@H]2C(=O)N(c2cncc(F)c2)[C@H](C(=O)NC2CC(F)(F)C2)c2ccccc2Cl)c1 [AG-120]', 0.886),
  ('C[C@@H](Oc1cc(-c2cnn(C3CCNCC3)c2)cnc1N)c1c(Cl)ccc(F)c1Cl [Crizotinib]', 0.221);

###

- System: primary AML patient cells (S081)
- Test Details: viability relative to DMSO control (fraction); higher = less drug effect (more viable cells)
- Study Conditions: 4 µM; 48 h
Recorded viability for the following compounds
Readout Kind: viability

INSERT INTO assay_data (smiles_notation, system_name, readout_kind, quantitative_readout) VALUES
  ('Nc1ccn([C@@H]2O[C@H](CO)[C@@H](O)[C@@H]2O)c(=O)n1', 'primary AML patient cells (S081)', 'viability', 0.884),
  ('Nc1ncn([C@@H]2O[C@H](CO)[C@@H](O)[C@H]2O)c(=O)n1', 'primary AML patient cells (S081)', 'viability', 0.951),
  ('CO[C@H]1C[C@@H]2CC[C@@H](C)[C@@](O)(O2)C(=O)C(=O)N2CCCC[C@H]2C(=O)O[C@H]([C@H](C)C[C@@H]2CC[C@@H](OC(=O)C(C)(CO)CO)[C@H](OC)C2)CC(=O)[C@H](C)/C=C(\C)[C@@H](O)[C@@H](OC)C(=O)[C@H](C)C[C@H](C)/C=C/C=C/C=C/1C', 'primary AML patient cells (S081)', 'viability', 0.969),
  ('COc1ccc(C2=N[C@@H](c3ccc(Cl)cc3)[C@@H](c3ccc(Cl)cc3)N2C(=O)N2CCNC(=O)C2)c(OC(C)C)c1', 'primary AML patient cells (S081)', 'viability', 1.02);

###

Recorded viability for the following molecules
- Tested on: primary CLL patient cells (S031)
- Test Details: viability relative to DMSO control (fraction); higher = less drug effect (more viable cells)
- Study Conditions: 0.04 µM; 48 h
Readout Kind: viability

INSERT INTO assay_data (smiles_notation, result) VALUES
  ('O=C1c2c(O)ccc(O)c2C(=O)c2c(NCCNCCO)ccc(NCCNCCO)c21', 0.383),
  ('COc1cccc2c1C(=O)c1c(O)c3c(c(O)c1C2=O)C[C@@](O)(C(=O)CO)C[C@@H]3O[C@H]1C[C@H](N)[C@H](O)[C@H](C)O1', 0.534),
  ('COc1cccc2c1C(=O)c1c(O)c3c(c(O)c1C2=O)C[C@@](O)(C(C)=O)C[C@@H]3O[C@H]1C[C@H](N)[C@H](O)[C@H](C)O1', 0.265),
  ('C/C=C1\NC(=O)[C@H]2CSSCC/C=C/[C@H](CC(=O)N[C@H](C(C)C)C(=O)N2)OC(=O)[C@H](C(C)C)NC1=O', 0.061);

###

- Tested on: primary AML patient cells (S002)
- Test Details: viability relative to DMSO control (fraction); higher = less drug effect (more viable cells)
- Study Conditions: 0.12 µM; 48 h
Readout Kind: viability

INSERT INTO measurements (smiles_notation, system_name, readout_kind, quantitative_readout) VALUES
  ('N#CC[C@H](C1CCCC1)n1cc(-c2ncnc3[nH]ccc23)cn1', 'primary AML patient cells (S002)', 'viability', 0.788),
  ('Cc1cc(Nc2ncc(Cl)c(Nc3ccccc3S(=O)(=O)C(C)C)n2)c(OC(C)C)cc1C1CCNCC1', 'primary AML patient cells (S002)', 'viability', 0.926),
  ('CNC(=O)c1cc(Oc2ccc(NC(=O)Nc3ccc(Cl)c(C(F)(F)F)c3)cc2)ccn1', 'primary AML patient cells (S002)', 'viability', 1.07),
  ('CS(=O)(=O)c1ccc(C(=O)Nc2ccc(Cl)c(-c3ccccn3)c2)c(Cl)c1', 'primary AML patient cells (S002)', 'viability', 0.923),
  ('O=C(Nc1cccc(C(F)(F)F)c1)Nc1cc(S(=O)(=O)NC2CC2)ccc1-c1ccsc1', 'primary AML patient cells (S002)', 'viability', 0.822),
  ('CCN1CCN(Cc2ccc(Nc3ncc(F)c(-c4cc(F)c5nc(C)n(C(C)C)c5c4)n3)nc2)CC1', 'primary AML patient cells (S002)', 'viability', 0.894),
  ('CCc1nc(C(N)=O)c(Nc2ccc(N3CCC(N4CCN(C)CC4)CC3)c(OC)c2)nc1NC1CCOCC1', 'primary AML patient cells (S002)', 'viability', 1.01);

###

- Test system: primary AML patient cells (S009)
- Test Details: viability relative to DMSO control (fraction); higher = less drug effect (more viable cells)
- Study Conditions: 0.2 µM; 48 h
Assign labels as follows, please: Fulfilled for viability below 0.2; Not fulfilled for viability equal to or exceeding 0.2.

INSERT INTO results (smiles_notation, system_name, discrete_label) VALUES
  ('COc1cccc2c1C(=O)c1c(O)c3c(c(O)c1C2=O)C[C@@](O)(C(=O)CO)C[C@@H]3O[C@H]1C[C@H](N)[C@H](O)[C@H](C)O1', 'primary AML patient cells (S009)', 'Not fulfilled'),
  ('Cc1nc(Nc2ncc(C(=O)Nc3c(C)cccc3Cl)s2)cc(N2CCN(CCO)CC2)n1', 'primary AML patient cells (S009)', 'Not fulfilled'),
  ('CCc1cnn2c(NCc3ccc[n+]([O-])c3)cc(N3CCCC[C@H]3CCO)nc12', 'primary AML patient cells (S009)', 'Fulfilled'),
  ('COc1cccc2c1C(=O)c1c(O)c3c(c(O)c1C2=O)C[C@@](O)(C(C)=O)C[C@@H]3O[C@H]1C[C@H](N)[C@H](O)[C@H](C)O1', 'primary AML patient cells (S009)', 'Not fulfilled');

###

- System: primary AML patient cells (S056)
- Test Details: viability relative to DMSO control (fraction); higher = less drug effect (more viable cells)
- Study Conditions: 0.04 µM; 48 h
Readout Kind: viability

INSERT INTO assay_data (smiles_notation, system_name, readout_kind, quantitative_readout) VALUES
  ('O=C1c2c(O)ccc(O)c2C(=O)c2c(NCCNCCO)ccc(NCCNCCO)c21', 'primary AML patient cells (S056)', 'viability', 0.17),
  ('CC(C)C[C@H](NC(=O)CNC(=O)c1cc(Cl)ccc1Cl)B(O)O', 'primary AML patient cells (S056)', 'viability', 0.894),
  ('CC#CC(=O)N1CCC[C@H]1c1nc(-c2ccc(C(=O)Nc3ccccn3)cc2)c2c(N)nccn12', 'primary AML patient cells (S056)', 'viability', 1.55),
  ('C/C=C1\NC(=O)[C@H]2CSSCC/C=C/[C@H](CC(=O)N[C@H](C(C)C)C(=O)N2)OC(=O)[C@H](C(C)C)NC1=O', 'primary AML patient cells (S056)', 'viability', 0.0512);

###

- Tested on: primary AML patient cells (S079)
- Test Details: viability relative to DMSO control (fraction); higher = less drug effect (more viable cells)
- Study Conditions: 0.024 µM; 48 h
Readout Kind: viability

INSERT INTO results (smiles_notation, system_name, quantitative_readout) VALUES
  ('O=C(c1cc(Cc2n[nH]c(=O)c3ccccc23)ccc1F)N1CCN(C(=O)C2CC2)CC1', 'primary AML patient cells (S079)', 0.828),
  ('N#Cc1ccnc(N2C(=O)CC[C@H]2C(=O)N(c2cncc(F)c2)[C@H](C(=O)NC2CC(F)(F)C2)c2ccccc2Cl)c1', 'primary AML patient cells (S079)', 0.978),
  ('Cc1cc(Nc2ncc(Cl)c(Nc3ccccc3S(=O)(=O)C(C)C)n2)c(OC(C)C)cc1C1CCNCC1', 'primary AML patient cells (S079)', 0.964),
  ('Oc1ccc(/C=C/c2cc(O)cc(O)c2)cc1', 'primary AML patient cells (S079)', 0.838),
  ('CNC(=O)c1cc(Oc2ccc(NC(=O)Nc3ccc(Cl)c(C(F)(F)F)c3)cc2)ccn1', 'primary AML patient cells (S079)', 0.99),
  ('Nc1ncn([C@H]2C[C@H](O)[C@@H](CO)O2)c(=O)n1', 'primary AML patient cells (S079)', 1.02);

###

- Tested on: primary AML patient cells (S089)
- Test Details: viability relative to DMSO control (fraction); higher = less drug effect (more viable cells)
- Study Conditions: 15 µM; 48 h
Readout Kind: viability

INSERT INTO results (smiles_notation, readout_kind, quantitative_readout) VALUES
  ('CNC(=O)c1cc(Oc2ccc(NC(=O)Nc3ccc(Cl)c(C(F)(F)F)c3)cc2)ccn1', 'viability', 0.587),
  ('Nc1nc(Cl)nc2c1ncn2[C@@H]1O[C@H](CO)[C@@H](O)[C@@H]1F', 'viability', 0.327),
  ('CCN1CCN(Cc2ccc(Nc3ncc(F)c(-c4cc(F)c5nc(C)n(C(C)C)c5c4)n3)nc2)CC1', 'viability', 0.0221),
  ('Oc1ccc(/C=C/c2cc(O)cc(O)c2)cc1', 'viability', 0.549),
  ('C[C@@H](Oc1cc(-c2cnn(C3CCNCC3)c2)cnc1N)c1c(Cl)ccc(F)c1Cl', 'viability', 0.0318),
  ('CS(=O)(=O)c1ccc(C(=O)Nc2ccc(Cl)c(-c3ccccn3)c2)c(Cl)c1', 'viability', 0.642);

Data credit: the supplement of paper PMC10733146
